# target.or.system: Protein cereblon/Serine/threonine-protein kinase ATR (Homo sapiens) (UniProt Q13535+Q96SW2)
# Sequence (Q13535 whole entry, looked up): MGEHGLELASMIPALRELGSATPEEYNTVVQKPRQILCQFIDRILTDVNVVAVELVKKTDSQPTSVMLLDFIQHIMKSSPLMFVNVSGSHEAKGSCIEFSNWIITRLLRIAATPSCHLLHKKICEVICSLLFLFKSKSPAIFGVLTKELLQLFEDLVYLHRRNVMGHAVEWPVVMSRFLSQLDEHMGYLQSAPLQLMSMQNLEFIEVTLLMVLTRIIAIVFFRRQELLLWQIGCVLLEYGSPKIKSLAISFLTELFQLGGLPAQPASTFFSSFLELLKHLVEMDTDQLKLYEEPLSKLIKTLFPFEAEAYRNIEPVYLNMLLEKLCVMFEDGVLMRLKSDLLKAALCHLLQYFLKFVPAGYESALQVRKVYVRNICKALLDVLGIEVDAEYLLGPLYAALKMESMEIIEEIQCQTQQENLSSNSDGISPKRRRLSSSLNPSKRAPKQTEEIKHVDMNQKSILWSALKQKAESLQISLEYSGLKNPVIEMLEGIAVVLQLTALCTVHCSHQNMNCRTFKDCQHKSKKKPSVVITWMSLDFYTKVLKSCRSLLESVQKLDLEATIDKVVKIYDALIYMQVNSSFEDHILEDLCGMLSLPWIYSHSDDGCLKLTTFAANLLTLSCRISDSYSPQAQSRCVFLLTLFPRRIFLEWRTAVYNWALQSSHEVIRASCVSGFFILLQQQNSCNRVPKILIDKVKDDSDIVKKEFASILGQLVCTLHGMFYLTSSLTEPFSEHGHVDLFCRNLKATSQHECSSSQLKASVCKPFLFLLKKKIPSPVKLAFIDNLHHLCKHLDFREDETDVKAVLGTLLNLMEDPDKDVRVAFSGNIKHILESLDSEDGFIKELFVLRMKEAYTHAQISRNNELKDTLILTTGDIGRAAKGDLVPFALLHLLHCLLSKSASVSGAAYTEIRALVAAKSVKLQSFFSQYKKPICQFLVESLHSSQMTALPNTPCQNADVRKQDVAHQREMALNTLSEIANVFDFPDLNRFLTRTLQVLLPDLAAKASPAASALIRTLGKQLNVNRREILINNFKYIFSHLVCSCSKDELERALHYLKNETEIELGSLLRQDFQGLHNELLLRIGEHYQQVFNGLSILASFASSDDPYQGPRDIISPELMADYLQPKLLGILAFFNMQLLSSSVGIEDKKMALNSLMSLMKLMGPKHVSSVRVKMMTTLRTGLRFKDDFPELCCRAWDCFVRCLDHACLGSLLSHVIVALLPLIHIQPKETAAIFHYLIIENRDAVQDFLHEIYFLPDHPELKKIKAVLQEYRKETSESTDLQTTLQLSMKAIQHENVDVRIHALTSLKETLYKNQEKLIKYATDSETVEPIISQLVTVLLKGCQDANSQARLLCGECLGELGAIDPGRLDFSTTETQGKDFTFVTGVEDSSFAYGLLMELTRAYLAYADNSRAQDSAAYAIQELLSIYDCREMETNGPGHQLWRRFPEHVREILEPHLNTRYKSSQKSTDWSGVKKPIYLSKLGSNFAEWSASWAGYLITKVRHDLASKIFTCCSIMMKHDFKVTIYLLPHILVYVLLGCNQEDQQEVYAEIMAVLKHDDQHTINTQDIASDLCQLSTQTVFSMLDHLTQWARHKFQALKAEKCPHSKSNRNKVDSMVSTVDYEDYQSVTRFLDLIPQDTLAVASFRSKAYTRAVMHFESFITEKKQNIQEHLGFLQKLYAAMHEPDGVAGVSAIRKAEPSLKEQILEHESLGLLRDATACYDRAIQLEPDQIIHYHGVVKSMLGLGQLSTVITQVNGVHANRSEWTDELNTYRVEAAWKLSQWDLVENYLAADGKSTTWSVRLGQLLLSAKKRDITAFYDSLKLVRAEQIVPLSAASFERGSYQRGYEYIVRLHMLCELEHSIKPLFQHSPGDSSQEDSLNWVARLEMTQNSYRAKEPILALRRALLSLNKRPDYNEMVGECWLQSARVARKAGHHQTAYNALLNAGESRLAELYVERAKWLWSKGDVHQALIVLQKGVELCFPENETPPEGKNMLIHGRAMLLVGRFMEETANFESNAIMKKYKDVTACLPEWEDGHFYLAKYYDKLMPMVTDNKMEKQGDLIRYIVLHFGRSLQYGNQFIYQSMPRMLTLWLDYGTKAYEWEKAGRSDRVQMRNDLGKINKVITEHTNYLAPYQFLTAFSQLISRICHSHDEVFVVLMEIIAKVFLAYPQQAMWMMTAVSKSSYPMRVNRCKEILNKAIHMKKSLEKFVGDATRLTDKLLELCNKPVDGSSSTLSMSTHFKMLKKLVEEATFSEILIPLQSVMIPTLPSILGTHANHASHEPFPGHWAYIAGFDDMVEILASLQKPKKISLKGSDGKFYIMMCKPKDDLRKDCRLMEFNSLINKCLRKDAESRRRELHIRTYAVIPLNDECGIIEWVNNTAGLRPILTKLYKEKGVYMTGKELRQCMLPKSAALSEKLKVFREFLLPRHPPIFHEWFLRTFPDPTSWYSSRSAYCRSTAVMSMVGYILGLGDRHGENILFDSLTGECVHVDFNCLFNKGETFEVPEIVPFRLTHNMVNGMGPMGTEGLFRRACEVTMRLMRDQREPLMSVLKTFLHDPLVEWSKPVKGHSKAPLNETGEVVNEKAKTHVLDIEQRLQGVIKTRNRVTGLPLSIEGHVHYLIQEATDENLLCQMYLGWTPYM
# Sequence (Q96SW2 whole entry, looked up): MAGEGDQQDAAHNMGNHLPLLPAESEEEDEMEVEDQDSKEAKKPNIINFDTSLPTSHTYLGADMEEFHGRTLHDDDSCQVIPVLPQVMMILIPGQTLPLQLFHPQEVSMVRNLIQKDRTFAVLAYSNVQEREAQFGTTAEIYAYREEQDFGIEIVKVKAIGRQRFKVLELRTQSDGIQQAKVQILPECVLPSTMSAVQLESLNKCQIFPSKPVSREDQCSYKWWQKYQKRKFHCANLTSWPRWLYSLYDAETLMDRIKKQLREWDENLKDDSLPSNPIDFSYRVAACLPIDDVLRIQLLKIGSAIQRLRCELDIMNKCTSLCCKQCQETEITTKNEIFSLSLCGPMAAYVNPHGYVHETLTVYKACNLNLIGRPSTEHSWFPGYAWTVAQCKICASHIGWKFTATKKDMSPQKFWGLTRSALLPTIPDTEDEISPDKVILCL
# measurement.notes: PROTAC activity at ATR/CRBN in patient derived human MIA PaCa-2 cells assessed as reduction in protein level at 2 uM measured after 24 hrs by immunoblot analysis relative to untreated control
# Assay type: cell-based
Activity calls are given as the source filed them. The calls are words filed in the database; no cut-off is given here.
quantity.measured: Activity

Example entries and their recorded answers appear below.
CNCc1ccc(-c2nnc(-c3nc(-c4ccc(S(=O)(=O)NCCCCCC(=O)NCCCC#Cc5cccc6c5CN(C5CCC(=O)NC5=O)C6=O)cc4)cnc3N)o2)cc1 (stereo unspecified) ... inactive
CNCc1ccc(-c2nnc(-c3nc(-c4ccc(S(=O)(=O)NCCCCCCC(=O)NCCCC#Cc5cccc6c5CN(C5CCC(=O)NC5=O)C6=O)cc4)cnc3N)o2)cc1 (stereo unspecified) ... > 20%
Nc1ncc(-c2ccc(S(=O)(=O)NCCCCCCCC(=O)N3CCN(c4ccc5c(c4)C(=O)N(C4CCC(=O)NC4=O)C5=O)CC3)cc2)nc1C(=O)Nc1ccccc1 (stereo unspecified) ... inactive
CNCc1ccc(-c2nnc(-c3nc(-c4ccc(S(=O)(=O)NCCCCCCC(=O)NCC#Cc5cccc6c5CN(C5CCC(=O)NC5=O)C6=O)cc4)cnc3N)o2)cc1 (stereo unspecified) ... > 20%
Nc1ncc(-c2ccc(S(=O)(=O)NCCCCC(=O)NCC#Cc3cccc4c3CN(C3CCC(=O)NC3=O)C4=O)cc2)nc1-c1nnc(-c2ccccc2)o1 (stereo unspecified) ... inactive

Could you now look at the following molecule, please?
Ask | Sample CNCc1ccc(-c2nnc(-c3nc(-c4ccc(S(=O)(=O)NCCCCC(=O)NCCCC#Cc5cccc6c5CN(C5CCC(=O)NC5=O)C6=O)cc4)cnc3N)o2)cc1 (stereo unspecified) — what was its Activity?
Reply | 40%

---

Each item that follows carries a reported remaining at 48 h.
# measurement.notes: Chemical stability of the compound in at pH 7.4 measured at 48 hrs by HPLC based non-enzymatic stability assay
# Assay type: physicochemical
# recorded.conditions: buffer, read-out: Stability

Example entries and their recorded answers appear below.
Nc1ncc(-c2ccc(S(=O)(=O)NCCCCCCCC(=O)NCC#Cc3cccc4c3CN(C3CCC(=O)NC3=O)C4=O)cc2)nc1C(=O)Nc1ccccc1 (stereo not drawn) ... 77%
Nc1ncc(-c2ccc(S(=O)(=O)NCCCCCC(=O)N3CCN(c4ccc5c(c4)C(=O)N(C4CCC(=O)NC4=O)C5=O)CC3)cc2)nc1-c1nnc(-c2ccccc2)o1 (stereo not drawn) ... 80%
Cc1ncsc1-c1ccc(CNC(=O)[C@@H]2C[C@@H](O)CN2C(=O)[C@@H](NC(=O)CCOCCOCCNS(=O)(=O)c2ccc(-c3cnc(N)c(C(=O)Nc4ccccc4)n3)cc2)C(C)(C)C)cc1 ... 101%
CNCc1ccc(-c2nnc(-c3nc(-c4ccc(S(=O)(=O)NCCCCC(=O)NCCCC#Cc5cccc6c5CN(C5CCC(=O)NC5=O)C6=O)cc4)cnc3N)o2)cc1 (stereo not drawn) ... 100%
Nc1ncc(-c2ccc(S(=O)(=O)NCCCCCCC(=O)NCCOc3ccc(C4CCC(=O)NC4=O)cc3)cc2)nc1C(=O)Nc1ccccc1 (stereo not drawn) ... 102%
Nc1ncc(-c2ccc(S(=O)(=O)NCCCCCCCC(=O)NCCOc3ccc(C4CCC(=O)NC4=O)cc3)cc2)nc1C(=O)Nc1ccccc1 (stereo not drawn) ... 100%
Nc1ncc(-c2ccc(S(=O)(=O)NCCCCCCC(=O)NCCCC#Cc3cccc4c3CN(C3CCC(=O)NC3=O)C4=O)cc2)nc1C(=O)Nc1ccccc1 (stereo not drawn) ... 105%
Nc1ncc(-c2ccc(S(=O)(=O)NCCCCCC(=O)N3CCN(c4cccc(C(=O)NC5CCC(=O)NC5=O)n4)CC3)cc2)nc1C(=O)Nc1ccccc1 (stereo not drawn) ... 82%
Nc1ncc(-c2ccc(S(=O)(=O)NCCOCCOCCC(=O)N3CCN(c4ccc5c(c4)C(=O)N(C4CCC(=O)NC4=O)C5=O)CC3)cc2)nc1C(=O)Nc1ccccc1 (stereo not drawn) ... 21%
CNS(=O)(=O)c1ccc(-c2cnc(N)c(C(=O)Nc3ccccc3)n2)cc1 ... 102%

Ask | Sample Nc1ncc(-c2ccc(S(=O)(=O)NCCCCCCCC(=O)N3CCN(c4ccc5c(c4)C(=O)N(C4CCC(=O)NC4=O)C5=O)CC3)cc2)nc1C(=O)Nc1ccccc1 (stereo not drawn) — what was its remaining at 48 h?
Reply | 94%

Ask | Sample Cc1ncsc1-c1ccc(CNC(=O)[C@@H]2C[C@@H](O)CN2C(=O)[C@@H](NC(=O)CCCCCNS(=O)(=O)c2ccc(-c3cnc(N)c(-c4nnc(-c5ccccc5)o4)n3)cc2)C(C)(C)C)cc1 — what was its remaining at 48 h?
Reply | 103%

Ask | Sample Cc1ncsc1-c1ccc(CNC(=O)[C@@H]2C[C@@H](O)CN2C(=O)[C@@H](NC(=O)CCCCNS(=O)(=O)c2ccc(-c3cnc(N)c(-c4nnc(-c5ccccc5)o4)n3)cc2)C(C)(C)C)cc1 — what was its remaining at 48 h?
Reply | 103%

Ask | Sample CN1C(=O)CCC(N2Cc3c(C#CCCCNC(=O)CCCCCNS(=O)(=O)c4ccc(-c5cnc(N)c(C(=O)Nc6ccccc6)n5)cc4)cccc3C2=O)C1=O (stereo not drawn) — what was its remaining at 48 h?
Reply | 98%

Ask | Sample CNCc1ccc(-c2nnc(-c3nc(-c4ccc(S(=O)(=O)NCCCCCCC(=O)NCC#Cc5cccc6c5CN(C5CCC(=O)NC5=O)C6=O)cc4)cnc3N)o2)cc1 (stereo not drawn) — what was its remaining at 48 h?
Reply | 100%

---

# measurement.notes: Chemical stability of the compound in at pH 7.4 measured at 12 hrs by HPLC based non-enzymatic stability assay
# Type: physicochemical
# recorded.conditions: buffer, read-out: Stability
quantity.measured: remaining at 12 h (%)
Report the value in % with no unit label.

Cc1ncsc1-c1ccc(CNC(=O)[C@@H]2C[C@@H](O)CN2C(=O)[C@@H](NC(=O)CCCCCNS(=O)(=O)c2ccc(-c3cnc(N)c(C(=O)Nc4ccccc4)n3)cc2)C(C)(C)C)cc1 ... 99
CNCc1ccc(-c2nnc(-c3nc(-c4ccc(S(=O)(=O)NCCCCCCC(=O)NCC#Cc5cccc6c5CN(C5CCC(=O)NC5=O)C6=O)cc4)cnc3N)o2)cc1 (stereo not drawn) ... 101

Could you now look at the following compound, please?
Ask | Sample Cc1ncsc1-c1ccc(CNC(=O)[C@@H]2C[C@@H](O)CN2C(=O)[C@@H](NC(=O)CCCCNS(=O)(=O)c2ccc(-c3cnc(N)c(-c4nnc(-c5ccccc5)o4)n3)cc2)C(C)(C)C)cc1 — what was its remaining at 12 h?
Reply | 100

---

# measurement.notes: Plasma stability in human plasma assessed as compound remaining at 20 uM measured after 24 hrs by HPLC analysis
# Format: ADME, cell-free
# recorded.conditions: read-out: Stability
quantity.measured: remaining at 24 h, 20 µM (%)
Report the value in % with no unit label.

Ask | Sample Nc1ncc(-c2ccc(S(=O)(=O)NCCCCCC(=O)NCCCC#Cc3cccc4c3CN(C3CCC(=O)NC3=O)C4=O)cc2)nc1C(=O)Nc1ccccc1 (configuration not stated) — what was its remaining at 24 h, 20 µM?
Reply | 75

---

Each item that follows carries a reported remaining at 12 h.
# measurement.notes: Chemical stability of the compound in at pH 7.4 measured at 12 hrs by HPLC based non-enzymatic stability assay
# Type: physicochemical
# recorded.conditions: buffer, read-out: Stability
Report the value in % with no unit label.

Nc1ncc(-c2ccc(S(=O)(=O)NCCCCC(=O)N3CCN(c4ccc5c(c4)C(=O)N(C4CCC(=O)NC4=O)C5=O)CC3)cc2)nc1C(=O)Nc1ccccc1 (stereo unspecified) ... 94

Ask | Sample CNCc1ccc(-c2nnc(-c3nc(-c4ccc(S(=O)(=O)NCCCCCCC(=O)N5CCN(c6ccc7c(c6)C(=O)N(C6CCC(=O)NC6=O)C7=O)CC5)cc4)cnc3N)o2)cc1 (stereo unspecified) — what was its remaining at 12 h?
Reply | 95

Ask | Sample Nc1ncc(-c2ccc(S(=O)(=O)NCCCCC(=O)NCCCC#Cc3cccc4c3CN(C3CCC(=O)NC3=O)C4=O)cc2)nc1C(=O)Nc1ccccc1 (stereo unspecified) — what was its remaining at 12 h?
Reply | 102

Ask | Sample CNS(=O)(=O)c1ccc(-c2cnc(N)c(C(=O)Nc3ccccc3)n2)cc1 — what was its remaining at 12 h?
Reply | 100

Ask | Sample Nc1ncc(-c2ccc(S(=O)(=O)NCCCCCC(=O)N3CCN(c4ccc5c(c4)C(=O)N(C4CCC(=O)NC4=O)C5=O)CC3)cc2)nc1-c1nnc(-c2ccccc2)o1 (stereo unspecified) — what was its remaining at 12 h?
Reply | 92

Ask | Sample CNCc1ccc(-c2nnc(-c3nc(-c4ccc(S(=O)(=O)NCCCCCC(=O)NCCCC#Cc5cccc6c5CN(C5CCC(=O)NC5=O)C6=O)cc4)cnc3N)o2)cc1 (stereo unspecified) — what was its remaining at 12 h?
Reply | 103
